This listing pairs molecules with measured inhibition.
Target: Prostaglandin G/H synthase 2 (Homo sapiens) (UniProt P35354);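 further: in vitro test using recombinant human COX-2 enzyme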
Sequence (P35354 whole entry): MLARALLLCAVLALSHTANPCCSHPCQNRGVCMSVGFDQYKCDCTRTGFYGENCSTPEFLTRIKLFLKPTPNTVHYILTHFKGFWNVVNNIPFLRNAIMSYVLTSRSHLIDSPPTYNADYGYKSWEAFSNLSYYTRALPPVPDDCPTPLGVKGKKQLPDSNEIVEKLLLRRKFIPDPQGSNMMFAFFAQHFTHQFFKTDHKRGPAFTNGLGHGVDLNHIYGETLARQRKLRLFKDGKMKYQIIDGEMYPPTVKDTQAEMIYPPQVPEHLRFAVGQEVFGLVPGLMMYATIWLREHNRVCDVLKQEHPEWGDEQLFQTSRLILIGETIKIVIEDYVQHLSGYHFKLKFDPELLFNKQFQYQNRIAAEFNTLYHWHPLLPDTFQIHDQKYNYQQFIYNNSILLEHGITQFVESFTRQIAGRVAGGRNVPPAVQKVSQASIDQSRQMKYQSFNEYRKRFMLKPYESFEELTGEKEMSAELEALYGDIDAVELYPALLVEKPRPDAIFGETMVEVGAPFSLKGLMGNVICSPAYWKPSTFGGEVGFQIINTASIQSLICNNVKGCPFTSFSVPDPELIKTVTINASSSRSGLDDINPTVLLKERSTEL
Conditions: at 10 µM
Description: In vitro percent Inhibition of recombinant human prostaglandin G/H synthase 2 (COX-2) at a concentration of 10 uM
metric name: inhibition (%)

{"columns": ["molecule", "assay target", "test result"],
 "data": [
  ["CS(=O)(=O)c1ccc(-c2cc3c(cc2C(=O)N2CCCCC2)OCO3)cc1", "Prostaglandin G/H synthase 2 (Homo sapiens) (UniProt P35354)", 40],
  ["Cc1cccc(C(=O)c2cc3c(cc2-c2ccc(S(C)(=O)=O)cc2)OCO3)c1", "Prostaglandin G/H synthase 2 (Homo sapiens) (UniProt P35354)", 40],
  ["CS(=O)(=O)c1ccc(-c2cc3c(cc2CN2CCCCC2CO)OCO3)cc1 (configuration not stated)", "Prostaglandin G/H synthase 2 (Homo sapiens) (UniProt P35354)", 30],
  ["CS(=O)(=O)c1ccc(-c2cc3c(cc2CCCc2ccccc2)OCO3)cc1", "Prostaglandin G/H synthase 2 (Homo sapiens) (UniProt P35354)", 0],
  ["CCOC(=O)C1CCCN(Cc2cc3c(cc2-c2ccc(S(C)(=O)=O)cc2)OCO3)C1 (configuration not stated)", "Prostaglandin G/H synthase 2 (Homo sapiens) (UniProt P35354)", 40],
  ["CS(=O)(=O)c1ccc(-c2cc3c(cc2C(=O)c2cccnc2)OCO3)cc1", "Prostaglandin G/H synthase 2 (Homo sapiens) (UniProt P35354)", 20],
  ["CS(=O)(=O)c1ccc(-c2cc3c(cc2C(O)c2ccccc2)OCO3)cc1 (configuration not stated)", "Prostaglandin G/H synthase 2 (Homo sapiens) (UniProt P35354)", 0]
]}
